Origin of measurements: ChEMBL document CHEMBL1153724

Biological target: Nucleic Acid
Experiment: Inhibition of fluorescein labeled Rev binding to HIV1 RRE RNA assessed as decrease of fluorescent anisotropy at 20 uM after 1 hour by fluorescence polarization-based assay
// values below are reported IC50

The following compounds have reported results that may help.
| SMILES_RECORD | IC50 |
| --- | --- |
| C[C@@H](CN[C@H](CN[C@H](CN[C@H](CNCCC(N)=O)Cc1ccc(O)cc1)Cc1ccc(O)cc1)Cc1ccc(O)cc1)NC[C@H](Cc1ccc(O)cc1)NC[C@H](Cc1ccc(O)cc1)NC[C@@H](N)Cc1ccc(O)cc1 | > 20 µM |
| C[C@@H](CN[C@H](CN[C@H](CN[C@H](CNCCC(N)=O)Cc1ccc(O)cc1)Cc1ccc(O)cc1)Cc1ccc(O)cc1)NC[C@H](Cc1ccc(O)cc1)NC[C@@H](N)Cc1ccc(O)cc1 | > 20 µM |
| NC(=O)CCNC[C@H](Cc1ccc(O)cc1)NC[C@H](Cc1ccc(O)cc1)NC[C@@H](N)Cc1ccc(O)cc1 | > 50 µM |
| NC(=O)CCNC[C@H](Cc1ccc(O)cc1)NC[C@H](Cc1ccc(O)cc1)NC[C@H](Cc1ccc(O)cc1)NC[C@H](Cc1ccc(O)cc1)NC[C@H](Cc1ccc(O)cc1)NC[C@@H](N)Cc1ccc(O)cc1 | > 20 µM |
| NC(=O)CCNC[C@H](Cc1ccc(O)cc1)NC[C@H](Cc1ccc(O)cc1)NC[C@H](Cc1ccc(O)cc1)NC[C@H](Cc1ccc(O)cc1)NC[C@@H](N)Cc1ccc(O)cc1 | > 20 µM |

With those in mind, consider the next compound.
input: I have this compound here, NC(=O)CCNC[C@H](Cc1ccc(O)cc1)NC[C@H](Cc1ccc(O)cc1)NC[C@H](Cc1ccc(O)cc1)NC[C@@H](N)Cc1ccc(O)cc1 , and I need its recorded IC50.
output: > 20 µM

* * *

Target: Nucleic Acid
Assay: Inhibition of fluorescein labeled Tat-peptide binding to HIV1 TAR RNA after 60 mins by FRET assay
Type: nucleic-acid assay, Human immunodeficiency virus 1
pEC50: −log10 of the molar value.
MEASURED_ENDPOINT: pEC50

(P) C[C@H](N)CN[C@H](CN[C@H](CN[C@H](CN[C@H](CN[C@H](CNCCC(N)=O)Cc1ccc(O)cc1)Cc1ccc(O)cc1)Cc1ccc(O)cc1)Cc1ccc(O)cc1)Cc1ccc(O)cc1
(Q) C[C@@H](CN[C@H](CN[C@H](CN[C@H](CNCCC(N)=O)Cc1ccc(O)cc1)Cc1ccc(O)cc1)Cc1ccc(O)cc1)NC[C@H](Cc1ccc(O)cc1)NC[C@H](Cc1ccc(O)cc1)NC[C@H](Cc1ccc(O)cc1)NC[C@@H](N)Cc1ccc(O)cc1
(R) NCCCC[C@@H](CN[C@H](CN[C@H](CN[C@H](CNCCC(N)=O)Cc1ccc(O)cc1)Cc1ccc(O)cc1)Cc1ccc(O)cc1)NC[C@H](Cc1ccc(O)cc1)NC[C@@H](N)Cc1ccc(O)cc1
(S) NC(=O)CCNC[C@H](Cc1ccc(O)cc1)NC[C@H](Cc1ccc(O)cc1)NC[C@@H](N)Cc1ccc(O)cc1
input: Order these compounds (above) by their pEC50, from the smallest value upward. Submit the labels in the order that the ranking request calls for.
output: S, P, R, Q
(S: 4.08, P: 5.49, R: 6.35, Q: 6.74)
